These entries and their values trace back to ChEMBL document CHEMBL5724801.

test system: U2OS; test: Multiplex assay against U2OS; type: toxicity, cell-based; details: human, 24 h, 1 µM, compound concentration 1 uM
RECORDED METRIC: Population Apoptotic (%)

>>> assay_value("COCCCN1CCC(NC(=O)c2cc(Cl)c(N)c3c2OCC3)CC1 [PRUCALOPRIDE]")
80
>>> assay_value("N#Cc1cc(F)cc(-c2nc(-c3ccc(F)cn3)no2)c1")
90

###

tested on: Fibroblast; test: Multiplex assay against human fibroblast; format: toxicity, cell-based; settings: 48 h, 1 µM, compound concentration 1 uM
RECORDED METRIC: Population Mitochondria Different-Phenotype (%)

>>> assay_value("COCCn1c(C)c(C)s/c1=N\\C(=O)C1C(C)(C)C1(C)C")
4
>>> assay_value("COc1c(C)cc(NC(=O)c2nn(Cc3ccc(F)cc3)c3c2CN(C(=O)c2ccc[nH]2)C[C@]3(C)C(N)=O)cc1C")
10
>>> assay_value("O=C(O)Cc1ccccc1Nc1c(Cl)cccc1Cl")
4
>>> assay_value("O=S(=O)(c1ccccc1)c1cnc2c(N3CCNCC3)cccc2c1 [INTEPIRDINE]")
2
>>> assay_value("C[C@@H]1C[C@H]2[C@@H]3CCC4=CC(=O)C=C[C@]4(C)[C@@]3(F)[C@@H](O)C[C@]2(C)[C@@]1(O)C(=O)CO")
4

###

system: U2OS; assay: Multiplex assay against U2OS; format: toxicity, cell-based; conditions: human, 24 h, 10 µM, compound concentration 10 uM
RECORDED METRIC: Population Normal (%)

>>> assay_value("CC[C@H](Nc1ncnc2[nH]cnc12)c1nc2cccc(F)c2c(=O)n1-c1ccccc1")
100
>>> assay_value("O=C(NCCNCC(O)COc1ccc(O)cc1)N1CCOCC1.O=C(NCCNCC(O)COc1ccc(O)cc1)N1CCOCC1.O=C(O)/C=C/C(=O)O (stereo not drawn) [XAMOTEROL FUMARATE]")
98
>>> assay_value("COC[C@@H](c1ccc(C(F)(F)F)cc1)N1CCN(C2(C)CCN(C(=O)c3c(C)ncnc3C)CC2)C[C@@H]1C.O=C(O)/C=C\\C(=O)O [VICRIVIROC MALEATE]")
98
>>> assay_value("Cl.Cl.N#Cc1ccc(O[C@@H]2c3ccccc3C[C@H]2N2CCC[C@@H](N)C2)c(Cl)c1")
100
>>> assay_value("CC/C(=C(\\c1ccc(O)cc1)c1ccc(OCCN(C)C)cc1)c1ccccc1")
100
>>> assay_value("S=c1[nH]nc(-c2cccs2)n1-c1ccccc1")
100
>>> assay_value("C=C(C)[C@H]1CN[C@H](C(=O)O)[C@H]1CC(=O)O")
100
>>> assay_value("CCc1nn2c(C)cc(C)nc2c1Cc1ccc(-c2nnc(C3CCNCC3)o2)cc1")
96

###

Recorded Population Healthy Nuclei (%) values for a group of compounds are listed next.
system: HEK-293T; assay: Multiplex assay against HEK293T; assay type: toxicity, cell-based; conditions: human, 24 h, 1 µM, compound concentration 1 uM
RECORDED METRIC: Population Healthy Nuclei (%)

>>> assay_value("COCCn1c(C)c(C)s/c1=N\\C(=O)C1C(C)(C)C1(C)C")
81
>>> assay_value("CC(C)(C)c1ccc(S(=O)(=O)Nc2ccc(Cl)cc2C(=O)c2cc[n+]([O-])cc2)cc1")
81
>>> assay_value("CNC[C@H](O)c1ccc(O)c(O)c1 [EPINEPHRINE]")
80
>>> assay_value("CCCCCCNC(=O)Nc1ccc(S(=O)(=O)Nc2ccc(CCNC[C@H](O)COc3ccc(O)cc3)cc2)cc1")
80
